The measurements presented in this section are drawn from PubChem BioAssay.

- test summary: CREB reporter modulators without forskolin, primary screen, cell-based, PC12, CRE-LacZ reporter, unstimulated (AID 1145)
- setup conditions: no forskolin, luminescence, 4.5 h, higher = more signal, called active from +8 up or from −8 down
Property: z-score; scope: individual molecules

[
  {
    "molecule": "COc1ccc(C(O)C2C=CC3C(=O)N(c4ccccc4)C(=O)C3N2Nc2ccccc2F)cc1OCc1ccccc1 (centres undefined)",
    "z-score": -0.143
  },
  {
    "molecule": "COc1ccc(C(O)C2C=CC3C(=O)N(c4ccccc4)C(=O)C3N2Nc2ccc(C(C)C)cc2)cc1OCc1ccccc1 (centres undefined)",
    "z-score": 1.4
  },
  {
    "molecule": "CCN(CC)c1ccc(N2CC=CC34O[C@@H]5/C=C\\CCC(C)OC(=O)C5[C@H]3C(=O)N(C(CO)C(C)C)[C@@H]4C2=O)cc1 (some centres undefined)",
    "z-score": 0.337
  },
  {
    "molecule": "CN1C(=O)C2C=CC(C(O)c3ccc(-c4ccccc4)s3)N(N(c3ccccc3)c3ccccc3)C2C1=O (centres undefined)",
    "z-score": -0.14
  }
]

---

- test summary: small-molecule microarray binders of probe aCHRDL2, primary screen, biochemical, biotinylated probe, 635/667 nm fluorescence (AID 1100)
- setup conditions: higher = more signal
measurement label: composite z-score

[
  {
    "compound": "[N-]=[N+]=NCc1ccccc1[C@@H]1OC(c2ccc(OCCCO)cc2)=N[C@]1(CCS(=O)(=O)c1ccccc1)C(=O)NCc1ccccc1",
    "measurement label": "composite z-score",
    "observed measurement": 0.993
  },
  {
    "compound": "[N-]=[N+]=Nc1ccccc1C[C@@]1(C(=O)NCCN2CCOCC2)N=C(c2ccc(OCCCO)cc2)O[C@@H]1c1ccccc1",
    "measurement label": "composite z-score",
    "observed measurement": 0.915
  },
  {
    "compound": "CCCC[C@@H]1C[C@H]1[C@@H](NC(=O)c1ccco1)c1ccc(C(=O)OC)cc1",
    "measurement label": "composite z-score",
    "observed measurement": 0.838
  },
  {
    "compound": "COCCOC(=O)N1C(=O)[C@@]2(c3cc(C#Cc4ccc(OC)cc4)ccc31)[C@H](c1ccccc1OCCO)N1[C@H](c3ccccc3)[C@H](c3ccccc3)OC(=O)[C@H]1[C@@H]2C(=O)N1CCN(c2ncccn2)CC1",
    "measurement label": "composite z-score",
    "observed measurement": 0.116
  },
  {
    "compound": "C=CCN1C(=O)[C@]2(O[C@H](CCO)[C@@H]([Si](C)(C)c3ccc(OC)cc3)[C@@H]2C)c2cc(N3C(=O)c4cccc5cccc3c45)ccc21",
    "measurement label": "composite z-score",
    "observed measurement": 0.151
  },
  {
    "compound": "CC(C)N1C(=O)[C@@]2(Cc3ccccc31)c1ccccc1C(=O)N(C1CCCCC1)[C@H]2c1ccc(CO)cc1",
    "measurement label": "composite z-score",
    "observed measurement": -0.194
  },
  {
    "compound": "C=CC[C@@]1(C(=O)NCc2ccccc2)N=C(c2ccc(OCCCO)cc2)O[C@@H]1c1ccccc1N=[N+]=[N-]",
    "measurement label": "composite z-score",
    "observed measurement": 1.02
  },
  {
    "compound": "CC(=O)n1cc(C(O)C2C=CC3C(=O)N(C)C(=O)C3N2Nc2ccccc2)c2ccccc21 (centres undefined)",
    "measurement label": "composite z-score",
    "observed measurement": 1.18
  },
  {
    "compound": "CN(C)C(=O)[C@]1(Cc2ccccc2N=[N+]=[N-])N=C(c2ccc(OCCCO)cc2)O[C@@H]1c1ccccc1",
    "measurement label": "composite z-score",
    "observed measurement": 0.787
  },
  {
    "compound": "COC(=O)[C@@]1(Cc2ccccc2)[C@H]2c3cc(C(=O)N(C)C)n(CCSCCO)c3C[C@H]2CN1C(=O)c1ccccc1",
    "measurement label": "composite z-score",
    "observed measurement": 0.829
  },
  {
    "compound": "COCCOC(=O)N1C(=O)[C@@]2(c3cc(C#Cc4ccc(OC)cc4)ccc31)[C@H](C(N)=O)[C@H]1C(=O)O[C@H](c3ccccc3)[C@H](c3ccccc3)N1[C@@H]2c1ccccc1OCCO",
    "measurement label": "composite z-score",
    "observed measurement": 0.634
  },
  {
    "compound": "Cc1ccc(S[C@]2(C(=O)NC(C)C)CC(=O)N(Cc3ccccc3Cl)[C@@H]2c2ccc(CO)cc2I)cc1",
    "measurement label": "composite z-score",
    "observed measurement": 1.07
  },
  {
    "compound": "O=C(NCc1ccccc1)[C@@]1(Cc2ccccc2)N=C(c2ccc(OCCCO)cc2)O[C@H]1c1ccccc1",
    "measurement label": "composite z-score",
    "observed measurement": 1.23
  },
  {
    "compound": "C=CCC(OC(C)=O)[C@@H]1[C@@H](N(Cc2ccc(-c3cccc(C(F)(F)F)c3)o2)C(=O)c2ccc(-c3ccccc3)cc2)c2cc(OCCCO)ccc2N1C(=O)c1ccc(-c2ccccc2)cc1 (some centres undefined)",
    "measurement label": "composite z-score",
    "observed measurement": 0.543
  }
]
